Assay: Selectivity index, ratio of IC50 for human HepG2 cells to IC50 for chloroquine-sensitive Plasmodium falciparum 3D7 infected in human erythrocytes
Type: toxicity, cell-based
Conditions: read-out: Ratio IC50
# selectivity ratio values compiled below

- STRUCTURE: "CCN1C(=O)N(CCC(C)C)C2(CCN(Cc3cc(Cl)c(Cl)cc3O)CC2)C1=O"
  selectivity ratio: "> 500"
- STRUCTURE: "CCN1C(=O)N(CCC(C)C)C2(CCN(Cc3cc(Cl)ccc3O)CC2)C1=O"
  selectivity ratio: "> 100"

----------
Tested on: HepG2
Test: Cytotoxicity against human HepG2 cells assessed as inhibition of cell viability after 72 hrs by PrestoBlue Cell Viability Reagent based assay
Settings: HepG2, 72 h
Entries and their measured IC50 follow.

- STRUCTURE: "CCN1C(=O)N(CCC(C)C)C2(CCN(Cc3cc(-c4ccccc4)ccc3O)CC2)C1=O"
  IC50: "> 50 µM"
- STRUCTURE: "CCN1C(=O)N(CCC(C)C)C2(CCN(Cc3cc(Cl)ccc3O)CC2)C1=O"
  IC50: "37 µM"
- STRUCTURE: "CCN1C(=O)N(CCC(C)C)C2(CCN(Cc3ccc(Cl)cc3O)CC2)C1=O"
  IC50: "> 50 µM"
- STRUCTURE: "CCN1C(=O)N(CCC(C)C)C2(CCN(Cc3cc(Cl)c(Cl)cc3O)CC2)C1=O"
  IC50: "> 50 µM"
